target: Histone-lysine N-methyltransferase EHMT2 (Homo sapiens) (UniProt Q96KQ7); assay: qHTS Assay for Inhibitors of Histone Lysine Methyltransferase G9a; conditions: G9a H3K9 monomethylation, AlphaScreen, 2 h; series mostly up to 59 µM; note: nearly all actives have a fitted effect of over 75% in size
Sequence (Q96KQ7 913-1193 limits assumed): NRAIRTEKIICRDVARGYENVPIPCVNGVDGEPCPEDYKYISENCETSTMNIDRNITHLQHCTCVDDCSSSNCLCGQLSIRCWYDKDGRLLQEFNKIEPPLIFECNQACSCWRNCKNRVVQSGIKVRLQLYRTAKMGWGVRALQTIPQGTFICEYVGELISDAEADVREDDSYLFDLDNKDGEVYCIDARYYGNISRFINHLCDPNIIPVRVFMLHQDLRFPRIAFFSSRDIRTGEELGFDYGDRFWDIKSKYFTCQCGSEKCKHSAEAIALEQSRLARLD
About 31,000 (8.9%) of roughly 350,000 compounds were called active. Inconclusive results (about 15%) are left out. Calls come from the whole dose curve; as a rule, active = well fitted inhibition curve with a large enough effect; inconclusive = small, poorly fitted or top-dose-only effect; inactive = no such curve, though single readings can be large or run the other way. This excerpt belongs to a sample that is enriched for actives.
Select the correct class. Options are active, inactive and nothing else.

Example entries and their recorded answers appear below.
COc1ccc(-c2nc(Cn3c(=O)cc(C)c4c(C)nn(-c5ccccc5)c43)c(C)o2)c(OC)c1; inactive
O=C(c1ccc2c(c1)N(Cc1ccccc1)C(=O)c1ccccc1S2(=O)=O)N1CCCC1; inactive
CC(C)C(C)NC(=O)COc1nc2ccccc2nc1N(C)C1CCCCC1 (stereo not given); inactive
O=C(c1ccc2c(c1)N(Cc1ccc(Cl)cc1)C(=O)c1ccccc1S2(=O)=O)N1CCCCC1; inactive
COc1ccc2oc(=O)c(-c3cn4c(n3)sc3cc(OC)ccc34)cc2c1; inactive
CN(CC(=O)Nc1cccc(F)c1)C(=O)CC1CCCC1; inactive
Cc1cc(/C=C2/SC(=O)N(CC(=O)N3CCCC3)C2=O)c(C)n1C; active
CCc1ccc(NC(=O)c2cc3c(=O)n(Cc4cccnc4)ccc3nc2C)cc1; inactive

Request: Entry "COC(=O)c1[nH]c2ccc(Br)cc2c1NC(=O)Oc1ccccc1" : call = ?
Result: active

Request: Hello, I am checking results. What call was entered for "O=C(Nc1cccnc1Cl)c1cc(-c2ccccc2O)on1" ?
Result: inactive
